assay: Lipophilicity of peptides, logP(oct/wat); type: physicochemical
Starred links: 1 amine or outer side, 2 acyl side, 3 side chain; linkers in the order of their positions; H or OH if unused. Positions of bridges follow the written chain, without caps; N, C: chain ends. Non-standard residues stand in square brackets, D forms with d. Residues, ends and D or L forms follow the SMILES beside them. ξ: configuration not given here. X4 = C=C(C)C[C@@H](N[*:1])C(=O)[*:2]; dVal(3-OH) = CC(C)(O)[C@@H](N)C(=O)O; Val(3-OH) = CC(C)(O)[C@H](N)C(=O)O; tBuAla = CC(C)(C)C[C@H](N)C(=O)O; R5 = C=CCCC[C@@](C)(N)C(=O)O; 4Amb = NCc1ccc(C(=O)O)cc1; ξP = O=C(O)C1CCCN1
readoutName: logD
# respond with the number and nothing more

[[record]]
compound = "CC[C@H](C)[C@H](NC(=O)[C@@H](NC(=O)[C@@H]1CCCN1C(=O)[C@H](CC(C)(C)C)NC(=O)[C@@H](CCC(=O)O)NC(=O)[C@@H](NC(=O)[C@@H](N)Cc1ccccc1)C(C)(C)O)[C@@H](C)O)C(=O)O [compound 016] (H-F[Val(3-OH)][dE][tBuAla]PTI-OH)"
readoutname = "logD"
resultnumber = -0.3


Query :: Entry under review: C=C(C)C[C@H](NC(=O)c1ccc(CNC(=O)CC(O)CN)cc1)C(=O)N1[C@H](C(=O)NCC(O)CC(=O)N[C@@H](CC(C)(C)C)C(=O)O)C[C@@H]2CCCC[C@@H]21 (stereo partly shown) [compound 104] . Reported logD?
Result :: -0.3

Query :: Entry under review: CC[C@H](C)[C@H](NC(=O)[C@@H](NC(=O)[C@@H]1CCCN1C(=O)[C@@H](NC(=O)c1ccc(CNC(=O)[C@H](NC(=O)[C@@H](N)Cc2ccccc2)C(C)(C)O)cc1)[C@@H](C)CC)[C@@H](C)O)C(=O)O [compound 021] (H-F[dVal(3-OH)][4Amb]IPTI-OH) . Reported logD?
Result :: -0.24

Query :: Entry under review: C=C(C)C[C@H]1NC(=O)[C@](C)(NC(=O)[C@@H](CCC(=O)O)NC(=O)[C@H](N)[C@H](C)O)CCC/C=C\CCC[C@](C)(C(=O)N[C@H](C(=O)O)[C@@H](C)CC)NC(=O)[C@H]([C@@H](C)O)NC(=O)C2CCCN2C1=O (stereo partly shown) [compound 052] (H-[dT][dE][R5][X4][ξP]T[R5]I-OH; staple (Z) 3-7) . Reported logD?
Result :: -0.07

---

experiment: in vitro; settings: mouse, plasma
Starred links: 1 amine or outer side, 2 acyl side, 3 side chain; linkers in the order of their positions; H or OH if unused. Non-standard residues stand in square brackets, D forms with d. Residues, ends and D or L forms follow the SMILES beside them. ξ: configuration not given here. Oic = O=C(O)[C@@H]1C[C@@H]2CCCC[C@@H]2N1; GABOB(3R) = O=C(C[C@@H](O)CN[*:1])[*:2]; tBuAla = CC(C)(C)C[C@H](N)C(=O)O; ξVal(3-OH) = CC(C)(O)C(N)C(=O)O; 4Amb = NCc1ccc(C(=O)O)cc1
readoutName: half-life at 5 μM

Query :: Entry under review: CC(C)(C)C[C@@H]1NC(=O)C[C@@H](O)CNC(=O)[C@@H]2C[C@@H]3CCCC[C@@H]3N2C(=O)[C@H](CC(C)(C)C)NC(=O)c2ccc(cc2)CNC(=O)C(C(C)(C)O)NC(=O)[C@@H](Cc2ccccc2)NC1=O (stereo partly drawn) [compound 109] (cyclo([4Amb][tBuAla][Oic][GABOB(3R)][tBuAla][dF][ξVal(3-OH)])) . Reported half-life at 5 μM?
Result :: > 480 min

Ref: paper PMC12627862
